# pIC50 per record follows
Target: human Nav1.2 (Homo sapiens)
Construct: expressed in transfected cells
Sequence (Q99250 whole entry): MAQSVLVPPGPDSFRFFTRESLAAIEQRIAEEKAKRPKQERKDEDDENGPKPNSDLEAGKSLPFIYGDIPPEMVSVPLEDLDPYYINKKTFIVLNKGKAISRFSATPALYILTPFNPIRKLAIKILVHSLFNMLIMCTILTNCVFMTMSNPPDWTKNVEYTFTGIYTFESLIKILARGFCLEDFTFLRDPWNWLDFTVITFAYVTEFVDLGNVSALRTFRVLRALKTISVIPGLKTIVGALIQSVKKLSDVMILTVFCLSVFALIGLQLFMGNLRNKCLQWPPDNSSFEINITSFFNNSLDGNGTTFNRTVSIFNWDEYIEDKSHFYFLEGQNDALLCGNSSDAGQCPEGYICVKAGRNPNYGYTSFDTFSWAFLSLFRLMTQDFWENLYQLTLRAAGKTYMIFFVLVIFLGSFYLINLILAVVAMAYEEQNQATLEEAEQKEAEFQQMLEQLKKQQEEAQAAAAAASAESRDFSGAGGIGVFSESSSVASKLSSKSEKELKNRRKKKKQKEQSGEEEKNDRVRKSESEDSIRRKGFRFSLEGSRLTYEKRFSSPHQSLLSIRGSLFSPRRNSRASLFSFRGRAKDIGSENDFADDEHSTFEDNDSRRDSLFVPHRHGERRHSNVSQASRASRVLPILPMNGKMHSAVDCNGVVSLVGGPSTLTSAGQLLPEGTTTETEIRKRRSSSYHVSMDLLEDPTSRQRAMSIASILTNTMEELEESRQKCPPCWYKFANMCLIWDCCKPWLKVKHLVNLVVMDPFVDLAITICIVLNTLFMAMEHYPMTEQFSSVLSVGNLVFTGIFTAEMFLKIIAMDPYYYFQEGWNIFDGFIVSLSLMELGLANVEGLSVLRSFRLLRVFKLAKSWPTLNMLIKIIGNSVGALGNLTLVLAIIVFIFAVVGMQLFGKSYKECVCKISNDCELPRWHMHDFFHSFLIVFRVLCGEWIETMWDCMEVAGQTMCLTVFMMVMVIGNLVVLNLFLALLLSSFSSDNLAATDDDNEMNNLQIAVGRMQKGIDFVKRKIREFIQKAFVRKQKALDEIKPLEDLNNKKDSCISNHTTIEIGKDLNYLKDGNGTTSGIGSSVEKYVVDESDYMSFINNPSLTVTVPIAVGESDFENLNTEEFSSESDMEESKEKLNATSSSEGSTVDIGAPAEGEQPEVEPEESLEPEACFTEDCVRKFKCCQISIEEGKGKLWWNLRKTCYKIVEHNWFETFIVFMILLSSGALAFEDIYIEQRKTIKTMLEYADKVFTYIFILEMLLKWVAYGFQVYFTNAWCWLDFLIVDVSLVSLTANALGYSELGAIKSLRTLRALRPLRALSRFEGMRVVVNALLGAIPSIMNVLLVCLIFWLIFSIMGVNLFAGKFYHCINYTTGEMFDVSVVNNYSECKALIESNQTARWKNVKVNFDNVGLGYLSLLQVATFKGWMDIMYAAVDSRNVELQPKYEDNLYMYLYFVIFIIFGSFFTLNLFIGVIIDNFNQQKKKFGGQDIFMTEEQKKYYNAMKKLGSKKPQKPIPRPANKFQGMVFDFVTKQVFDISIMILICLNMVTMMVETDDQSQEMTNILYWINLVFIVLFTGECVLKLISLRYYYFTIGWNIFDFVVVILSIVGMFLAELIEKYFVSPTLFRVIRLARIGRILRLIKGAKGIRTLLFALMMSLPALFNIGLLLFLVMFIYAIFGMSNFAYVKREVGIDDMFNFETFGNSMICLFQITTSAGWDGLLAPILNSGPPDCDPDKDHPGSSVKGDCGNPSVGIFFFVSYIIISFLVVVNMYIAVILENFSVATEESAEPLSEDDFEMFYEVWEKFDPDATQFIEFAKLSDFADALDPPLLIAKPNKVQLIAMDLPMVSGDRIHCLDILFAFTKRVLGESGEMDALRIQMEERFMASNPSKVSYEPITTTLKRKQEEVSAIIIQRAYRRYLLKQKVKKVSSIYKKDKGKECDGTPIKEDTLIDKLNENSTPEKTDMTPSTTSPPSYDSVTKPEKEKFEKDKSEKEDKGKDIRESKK
Assay: Nav1.2 spiking HEK assay on Swarm
Type: cell-based
Details: 8 mM bath [K+]; mean spike areas under TP1, TP8, TP10
pIC50: −log10 of the molar value.
measurement-kind: pIC50

Cc1cccc(C)c1OCC(C)N (stereo not drawn) [Mexiletine] ... 4.54
NC(=O)N1c2ccccc2C=Cc2ccccc21 [Carbamazepine] ... 3.86
O=C1N(Cc2ccc(C(F)(F)F)o2)c2ccccc2[C@]12COc1cc3c(cc12)OCO3 [Funapide] ... 6.29

* * *

// reported Nav1.7 Swarm (score at 3 µM) for each item listed
Target: human Nav.1.7 (Homo sapiens)
Construct: expressed in transfected cells
Sequence (Q15858 whole entry): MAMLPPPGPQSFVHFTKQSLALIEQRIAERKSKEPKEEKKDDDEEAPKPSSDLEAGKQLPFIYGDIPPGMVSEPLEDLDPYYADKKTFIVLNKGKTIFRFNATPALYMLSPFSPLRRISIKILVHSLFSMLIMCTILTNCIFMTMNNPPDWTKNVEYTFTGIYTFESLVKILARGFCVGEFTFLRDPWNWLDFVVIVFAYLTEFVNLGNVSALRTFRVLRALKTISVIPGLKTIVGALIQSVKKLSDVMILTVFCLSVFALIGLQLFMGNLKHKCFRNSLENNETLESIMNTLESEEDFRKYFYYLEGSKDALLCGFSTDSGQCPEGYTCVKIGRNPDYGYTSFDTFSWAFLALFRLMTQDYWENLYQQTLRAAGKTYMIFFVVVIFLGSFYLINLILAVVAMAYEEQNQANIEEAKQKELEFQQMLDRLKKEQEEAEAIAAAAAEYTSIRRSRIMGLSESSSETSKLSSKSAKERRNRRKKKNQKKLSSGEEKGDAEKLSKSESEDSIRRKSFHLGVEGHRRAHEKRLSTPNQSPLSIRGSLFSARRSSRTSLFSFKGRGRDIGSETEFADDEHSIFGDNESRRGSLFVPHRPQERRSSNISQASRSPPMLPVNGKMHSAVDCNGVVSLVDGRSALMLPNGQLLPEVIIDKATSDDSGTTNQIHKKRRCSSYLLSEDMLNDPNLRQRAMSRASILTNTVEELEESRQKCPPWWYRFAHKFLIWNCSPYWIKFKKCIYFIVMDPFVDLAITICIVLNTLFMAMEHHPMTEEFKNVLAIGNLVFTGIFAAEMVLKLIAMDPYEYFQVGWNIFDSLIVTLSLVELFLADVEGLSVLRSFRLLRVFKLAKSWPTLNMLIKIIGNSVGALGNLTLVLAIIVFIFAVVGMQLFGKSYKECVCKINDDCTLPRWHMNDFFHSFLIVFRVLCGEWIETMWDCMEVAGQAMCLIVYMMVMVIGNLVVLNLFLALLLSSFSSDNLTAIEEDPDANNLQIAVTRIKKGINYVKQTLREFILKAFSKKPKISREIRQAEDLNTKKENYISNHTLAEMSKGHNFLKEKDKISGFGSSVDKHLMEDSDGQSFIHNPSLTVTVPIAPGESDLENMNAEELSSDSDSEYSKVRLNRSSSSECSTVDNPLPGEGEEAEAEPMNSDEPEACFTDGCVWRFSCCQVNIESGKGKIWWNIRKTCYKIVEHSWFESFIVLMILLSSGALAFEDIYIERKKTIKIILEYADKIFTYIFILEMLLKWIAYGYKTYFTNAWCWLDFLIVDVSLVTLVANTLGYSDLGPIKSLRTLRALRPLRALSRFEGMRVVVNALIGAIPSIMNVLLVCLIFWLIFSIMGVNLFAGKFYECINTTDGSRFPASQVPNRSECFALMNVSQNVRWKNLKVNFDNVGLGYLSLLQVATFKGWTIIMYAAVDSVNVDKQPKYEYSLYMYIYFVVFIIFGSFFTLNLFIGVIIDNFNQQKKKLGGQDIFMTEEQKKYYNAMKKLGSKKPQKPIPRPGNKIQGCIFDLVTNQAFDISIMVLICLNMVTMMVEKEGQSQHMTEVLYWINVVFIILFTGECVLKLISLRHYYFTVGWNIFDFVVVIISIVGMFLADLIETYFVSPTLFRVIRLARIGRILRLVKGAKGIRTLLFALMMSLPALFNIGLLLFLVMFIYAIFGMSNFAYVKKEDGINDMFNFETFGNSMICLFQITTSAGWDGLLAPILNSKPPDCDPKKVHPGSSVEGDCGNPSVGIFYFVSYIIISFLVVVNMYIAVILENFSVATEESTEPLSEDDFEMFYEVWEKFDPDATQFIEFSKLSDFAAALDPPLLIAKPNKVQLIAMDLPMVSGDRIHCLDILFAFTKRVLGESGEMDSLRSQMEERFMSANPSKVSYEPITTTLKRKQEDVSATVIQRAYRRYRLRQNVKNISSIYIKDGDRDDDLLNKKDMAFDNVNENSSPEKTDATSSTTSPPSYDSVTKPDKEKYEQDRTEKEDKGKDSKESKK
Test: Nav1.7 spiking HEK assay on Swarm
Format: cell-based
Settings: normalized mean spike amplitude score; Prestwick library compounds
measurement-kind: Nav1.7 Swarm (score at 3 µM)

O=C(NCC1CCCCN1)c1cc(OCC(F)(F)F)ccc1OCC(F)(F)F (stereo not shown) [Flecainide] ... 0.72
O=C1Cc2cc(CCN3CCN(c4nsc5ccccc45)CC3)c(Cl)cc2N1 ... 1.07
CC(C)N(CCC(C(N)=O)(c1ccccc1)c1ccccn1)C(C)C (stereo not shown) [Disopyramide] ... 0.94
CCCCN1CCCCC1C(=O)Nc1c(C)cccc1C (stereo not shown) ... 0.27
CC#C[C@]1(O)CC[C@H]2[C@@H]3CCC4=CC(=O)CCC4=C3[C@@H](c3ccc(N(C)C)cc3)C[C@@]21C ... 0.97
CN1CCC(=C2c3ccccc3C=Cc3ccccc32)CC1 ... 0.44
OCCN1CCN(CCCN2c3ccccc3Sc3ccc(C(F)(F)F)cc32)CC1 ... 0.31
